- experimental-system: T1, GLP-1R (INS1e assay) (UniProt P32301 22-463, limits assumed)
- T1 sequence (looked up): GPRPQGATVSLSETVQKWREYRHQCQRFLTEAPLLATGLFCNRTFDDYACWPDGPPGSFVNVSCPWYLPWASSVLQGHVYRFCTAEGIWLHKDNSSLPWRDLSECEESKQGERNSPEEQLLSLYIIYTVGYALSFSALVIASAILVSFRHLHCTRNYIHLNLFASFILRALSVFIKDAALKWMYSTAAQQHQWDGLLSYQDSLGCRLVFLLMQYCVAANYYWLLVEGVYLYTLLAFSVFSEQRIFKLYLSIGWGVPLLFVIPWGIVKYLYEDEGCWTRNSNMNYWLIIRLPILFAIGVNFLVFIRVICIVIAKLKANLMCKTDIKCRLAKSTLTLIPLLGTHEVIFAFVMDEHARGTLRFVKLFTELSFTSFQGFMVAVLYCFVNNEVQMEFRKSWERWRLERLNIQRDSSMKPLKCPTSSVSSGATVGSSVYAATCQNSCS
- assay: cell-based or functional assay
Starred links: 1 amine or outer side, 2 acyl side, 3 side chain; linkers in the order of their positions; H or OH if unused. Non-standard residues stand in square brackets, D forms with d. Groups on a side chain read outwards from the residue. Primed or numbered codes have the meaning given here. No end group written: not given here. *: point of attachment. γGlu = O=C(O)[C@H](CCC(=O)[*:2])N[*:1]; Stearoyl = CCCCCCCCCCCCCCCCCC(=O)*; αMeF = C[C@](N)(Cc1ccccc1)C(=O)O; αMeK = C[C@](N)(CCCCN)C(=O)O; αMeS = C[C@](N)(CO)C(=O)O; PEG2′ = not defined here; Aib = CC(C)(N)C(=O)O
attribute-measured: INS1e assay EC50 GLP-1 R n1 (nM)
Field format: number, assumed nM, no unit text.

                                     binder           attribute_measured  unit_string  assay_result
0  H[Aib]EGS[αMeF]TSDV[αMeS]S[αMeF]LEGEAA[αMeK]E[αMeF]IA[αMeF]VVK([PEG2′-PEG2′-Stearoyl])GG-NH2 [SEQ ID NO 198]  INS1e assay EC50 GLP-1 R n1           nM          1.38
1  H[Aib]EGS[αMeF]TSDV[αMeS]S[αMeF]LEGEAAK([PEG2′-PEG2′-PEG2′-Stearoyl])EFIA[αMeF]VV[αMeK]GG-NH2 [SEQ ID NO 54]  INS1e assay EC50 GLP-1 R n1           nM       0.00267
2  H[Aib]EGS[αMeF]TSDK([PEG2′-PEG2′-γGlu-Stearoyl])[αMeS]S[αMeF]LEGEAA[αMeK]E[αMeF]IA[αMeF]VV[αMeK]GG-NH2 [SEQ ID NO 119]  INS1e assay EC50 GLP-1 R n1           nM          2.71

Alright, here's another binder for you.
Tell me the measured INS1e assay EC50 GLP-1 R n1 of H[Aib]EGS[αMeF]TSDV[αMeS]S[αMeF]LEGEAA[αMeK]EK([PEG2′-PEG2′-γGlu-Stearoyl])IA[αMeF]VV[αMeK]GG-NH2 [SEQ ID NO 107] , please.
5.23
